Where these numbers come from: patent US8822530B2

Each entry below carries its reported CCR2 % ANTAGONISM.
Assayed system: CCR2 receptor (Homo sapiens, UniProt P41597)
Construct: expressed in transfected cells
Sequence (P41597 whole entry): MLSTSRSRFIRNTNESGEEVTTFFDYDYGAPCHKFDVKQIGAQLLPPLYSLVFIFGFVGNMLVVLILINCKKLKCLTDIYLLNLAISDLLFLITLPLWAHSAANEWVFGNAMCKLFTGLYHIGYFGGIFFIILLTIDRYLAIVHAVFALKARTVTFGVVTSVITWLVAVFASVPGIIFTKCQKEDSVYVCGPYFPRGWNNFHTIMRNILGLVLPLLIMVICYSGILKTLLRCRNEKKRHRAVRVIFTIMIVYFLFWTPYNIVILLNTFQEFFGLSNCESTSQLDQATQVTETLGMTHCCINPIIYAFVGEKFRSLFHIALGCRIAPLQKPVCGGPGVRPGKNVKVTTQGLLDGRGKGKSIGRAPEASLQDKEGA
Assay overview: Calcium activity assay on FLIPR Tetra in HEK-Gqi5 cells stably expressing CCR2
Format: cell-based
Procedure: HEK-Gqi5 cells stably expressing CCR2 were cultured in DMEM high glucose, 10% FBS, 1% PSA, 400 μg/ml geneticin and 50 μg/ml hygromycin. Appropriate positive control chemokines (MCP-1, MIP1A or RANTES) was used as the positive control agonist for screening compound-induced calcium activity assayed on the FLIPR^Tetra. The drug plates were prepared in 384-well microplates using the EP3 and the MultiPROBE robotic liquid handling systems. Compounds were synthesized and tested for CCR2 activity.
Numeric answer only, unit % assumed.

Compound: COC(=O)c1ccccc1CS(=O)(=O)c1ccc(Cl)cc1NS(=O)(=O)c1ccc(Cl)c(C(F)(F)F)c1
CCR2 % ANTAGONISM (%): 82

Compound: COC(=O)c1cccc(C[S+]([O-])c2ccc(Cl)cc2NS(=O)(=O)c2ccc(Cl)c(C(F)(F)F)c2)c1 (stereo not shown)
CCR2 % ANTAGONISM (%): 93

Compound: COC(=O)c1ccccc1C[S+]([O-])c1ccc(F)cc1NS(=O)(=O)c1cc2ccccc2o1 (stereo not shown)
CCR2 % ANTAGONISM (%): 91

Now for the compound whose CCR2 % ANTAGONISM we want.
Answer with the recorded CCR2 % ANTAGONISM for the compound listed here: COC(=O)c1ccccc1C[S+]([O-])c1ccc(Cl)cc1NS(=O)(=O)c1ccc(Cl)c(C(F)(F)F)c1 (stereo not shown)
101

====

Assayed system: CCR2 receptor (Homo sapiens, UniProt P41597)
Construct: expressed in transfected cells
Assay overview: Calcium activity assay on FLIPR Tetra in HEK-Gqi5 cells stably expressing CCR2
Assay type: cell-based
Quantity: CCR2 % ANTAGONISM
Answer with the value and then the unit.

Guide cases for CCR2 % ANTAGONISM, answers given:
Molecule: O=C(O)CC[S+]([O-])c1ccc(Cl)cc1NS(=O)(=O)c1ccc(Cl)cc1F (centres unmarked)
Assayed system: CCR2 receptor (Homo sapiens, UniProt P41597)
Readout value: 83%

Molecule: O=C(O)c1cccc(CS(=O)(=O)c2ccc(Cl)cc2NS(=O)(=O)c2ccc(Cl)c(C(F)(F)F)c2)c1
Assayed system: CCR2 receptor (Homo sapiens, UniProt P41597)
Readout value: 101%

Molecule: O=S(=O)(Nc1cc(Cl)ccc1SCc1ccccc1)c1ccc(Cl)c(C(F)(F)F)c1
Assayed system: CCR2 receptor (Homo sapiens, UniProt P41597)
Readout value: 68%

Molecule: O=C(NCCN1CCCC1)c1cccc(CS(=O)(=O)c2ccc(Cl)cc2NS(=O)(=O)c2ccc(Cl)c(C(F)(F)F)c2)c1
Assayed system: CCR2 receptor (Homo sapiens, UniProt P41597)
Readout value: 110%

Molecule: O=C(O)c1ccccc1CS(=O)(=O)c1ccc(Cl)cc1NS(=O)(=O)c1ccc(Cl)c(C(F)(F)F)c1
Assayed system: CCR2 receptor (Homo sapiens, UniProt P41597)
Readout value: 105%

Could you please provide reported CCR2 % ANTAGONISM for O=C(O)CSc1ccc(Cl)cc1NS(=O)(=O)c1cc2ccccc2o1 ? Thanks!
95%

Complete the entry with CCR2 % ANTAGONISM for O=C(O)c1ccccc1CSc1ccc(F)cc1NS(=O)(=O)c1cc2ccccc2o1
99%

Give recorded CCR2 % ANTAGONISM. O=C(NCCN1CCCC1)c1ccc(CSc2ccc(Cl)cc2NS(=O)(=O)c2ccc(Cl)c(C(F)(F)F)c2)cc1
75%
